- protocol-text: qHTS profiling for inhibitors of Plasmodium falciparum (HB3) proliferation (AID 743324);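 further: 100% = DMSO vehicle wells and 0% = artemisinin-treated control wells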
- study-conditions: Plasmodium falciparum HB3 blood-stage proliferation; at 28.7 µM (top of the series) unless noted
# if measured remaining proliferation (% of control), lower = more inhibition < 8%: T  # else: F

Request: For `COc1ccccc1-c1cccc(-c2c(O)c3cc(C#N)c(Cl)cc3[nH]c2=O)c1` , is the recorded remaining proliferation (% of control), lower = more inhibition below the cut-off of 8%?
Result: F

Request: For `Oc1cccc(-c2nc(N3CCOCC3)c3oc4ncccc4c3n2)c1` , is the recorded remaining proliferation (% of control), lower = more inhibition below the cut-off of 8%?
Result: T

Request: For `Cn1cc(-c2ccc3nnc(C(F)(F)c4ccc5ncccc5c4)n3n2)cn1` , is the recorded remaining proliferation (% of control), lower = more inhibition below the cut-off of 8%?
Result: F

Request: For `OCCC#Cc1nc(-c2ccc(F)cc2)c(-c2ccncc2)n1CCCc1ccccc1` , is the recorded remaining proliferation (% of control), lower = more inhibition below the cut-off of 8%?
Result: T

Request: For `COc1cc(F)c(F)c(Nc2ccc(I)cc2F)c1NS(=O)(=O)C1(C[C@H](O)CO)CC1` , is the recorded remaining proliferation (% of control), lower = more inhibition below the cut-off of 8%?
Result: F

----------
- protocol-text: qHTS drug screen for cell cycle checkpoint inhibitors in PARPi-resistant BRCA-mutant ovarian cancer cell lines. (AID 1963452)
- study-conditions: PEO1/OlaR viability, CellTiter-Glo luminescence, 96 h; stronger effect = lower value
value-type: Z-AUC
Reply with just the number.

Request: Could you share which Z-AUC value was measured for `CC(C)(C)OC(=O)CN(Cc1ccc(Cl)cc1)Cc1ccc([N+](=O)[O-])s1` ?
Result: 0.709

Request: Could you share which Z-AUC value was measured for `c1ccc(-c2nn3c(c2-c2ccnc4cc(OCCN5CCOCC5)ccc24)CCC3)nc1` ?
Result: 0.744

Request: Could you share which Z-AUC value was measured for `CCOc1cc(N2CCC(O)CC2)ccc1Nc1ncc2c(n1)N(C)c1ccccc1C(=O)N2C` ?
Result: -0.264

Request: Could you share which Z-AUC value was measured for `Cc1ccc(-n2nc(C(C)(C)C)cc2NC(=O)Nc2ccc(OCCN3CCOCC3)c3ccccc23)cc1` ?
Result: 0.154

Request: Could you share which Z-AUC value was measured for `Cc1csc(NC(=O)c2sc3nc4c(c(C(F)(F)F)c3c2N)CCC4)n1` ?
Result: 0.359

Request: Could you share which Z-AUC value was measured for `OCCn1cc(-c2cnc3nnn(Cc4ccc5ncccc5c4)c3n2)cn1` ?
Result: -0.182

Request: Could you share which Z-AUC value was measured for NC(=O)C1CCCc2c1[nH]c1ccc(Cl)cc21 (configuration not stated) ?
Result: -0.722

Request: Could you share which Z-AUC value was measured for `C#Cc1cccc(Nc2ncnc3cc(OCCOC)c(OCCOC)cc23)c1` ?
Result: -0.425

Request: Could you share which Z-AUC value was measured for CC(C)(C)NCC(O)c1ccc(O)c(CO)c1 (configuration not stated) ?
Result: 0.197

Request: Could you share which Z-AUC value was measured for `CCOc1ccn(-c2ccc(F)cc2)c(=O)c1C(=O)Nc1ccc(Oc2ccnc(N)c2Cl)c(F)c1` ?
Result: -0.773

Request: Could you share which Z-AUC value was measured for `COc1ccccc1-c1cccc(-c2c(O)c3cc(C#N)c(Cl)cc3[nH]c2=O)c1` ?
Result: 0.395

Request: Could you share which Z-AUC value was measured for `N[C@@H]1CONC1=O` ?
Result: -0.0127

Request: Could you share which Z-AUC value was measured for `Cc1cccc(-c2[nH]c(C(C)(C)C)nc2-c2ccc3nccnc3c2)n1` ?
Result: 0.914

Request: Could you share which Z-AUC value was measured for `O=C(Nc1cccnc1)N1CCC(Cc2cccc(Oc3ccc(C(F)(F)F)cn3)c2)CC1` ?
Result: -0.589

Request: Could you share which Z-AUC value was measured for CN(C)c1ccc(C2Nc3ccc4ccccc4c3C3=C2C(=O)CC(C)(C)C3)cc1Br (configuration not stated) ?
Result: -0.197

Request: Could you share which Z-AUC value was measured for `O=C(O)CCc1ccc(NCc2cccc(Oc3ccccc3)c2)cc1` ?
Result: 1.62

Request: Could you share which Z-AUC value was measured for `COc1c(Cl)cc2c([nH]c3cnccc32)c1NC(=O)c1cccnc1C` ?
Result: 1.1

Request: Could you share which Z-AUC value was measured for OC(CCN1CCCCC1)(c1ccccc1)C1CC2C=CC1C2 (configuration not stated) ?
Result: -0.614

Request: Could you share which Z-AUC value was measured for `O=C(C1CC1)N1CC[C@@H](Cn2c(-c3ccc(-c4ccc5occc5c4)cc3)nc3cnccc32)C1` ?
Result: 0.419

Request: Could you share which Z-AUC value was measured for CC(C[N+](C)(C)C)OC(N)=O (configuration not stated) ?
Result: 1.18

Request: Could you share which Z-AUC value was measured for `NC(=O)c1cnccn1` ?
Result: 0.616

Request: Could you share which Z-AUC value was measured for CC(c1cc2ccccc2s1)N(O)C(N)=O (configuration not stated) ?
Result: -0.588

----------
- Test system: HACAT
- protocol-text: qHTS assay to identify novel small-molecules to repurpose for Merkel cell carcinoma treatment (AID 1296009); further: nearly all actives have a fitted effect of over 60% in size
- study-conditions: MCC and control cell lines, CellTiter-Glo viability, 72 h; at 44.8 µM (top of the series) unless noted
- Excerpt: MCC is a rare and aggressive neuroendocrine skin cancer with limited treatment options. Approximately 80% of MCCs have the Merkel cell polyomavirus (MCPyV) DNA integrated into the host genome (virus-positive: VP-MCC) and viral oncogenes drive oncogenesis. The remaining MCCs are virus-negative (VN-MCC) and are caused by UV mutagenesis. […] Using cell viability as a readout (CellTiter-Glo assay) we found both overlapping and distinct drugs that can be repurposed for the treatment of VP-MCC and VN-MCC. […]
Records with an inconclusive call do not appear. The source made the active and inactive calls. The call rests on the fitted dose curve; in most records, active means well fitted inhibition curve with a large enough effect; inconclusive means small, poorly fitted or top-dose-only effect; inactive means flat fitted curve, though single readings scatter.
value-type: outcome

Examples with answers:
compound: Cc1ccc(-n2nc(C(C)(C)C)cc2NC(=O)Nc2ccc(OCCN3CCOCC3)c3ccccc23)cc1
value-type: outcome
observed-value: inactive

compound: NC(=O)c1ccc(I)c([N+](=O)[O-])c1
value-type: outcome
observed-value: inactive

compound: Cc1cnc(NC(=O)C2=C(O)c3ccccc3S(=O)(=O)N2C)s1
value-type: outcome
observed-value: inactive

compound: CNCc1ccc(-c2[nH]c3cc(F)cc4c3c2CCNC4=O)cc1
value-type: outcome
observed-value: inactive

compound: NS(=O)(=O)c1cc2c(cc1Cl)NC=NS2(=O)=O
value-type: outcome
observed-value: inactive

Request: Could you share which outcome value was measured for CC(C[N+](C)(C)C)OC(N)=O (stereo unspecified) ?
Result: inactive

----------
- Test system: CP211
- protocol-text: qHTS profiling for inhibitors of Plasmodium falciparum proliferation (AID 504749); further: nearly all actives have a fitted effect of over 60% in size
- study-conditions: P. falciparum in erythrocytes, SYBR Green DNA, 72 h; series mostly up to 28.7 µM
Results filed as inconclusive are left out. The source made the active and inactive calls. The call rests on the fitted dose curve; in most records, active means well fitted inhibition curve with a large enough effect; inconclusive means small, poorly fitted or top-dose-only effect; inactive means flat fitted curve, though single readings scatter.
Respond only with the outcome that fits, drawn from yes = active, no = inactive

Request: Recorded test outcome, item CCc1ccc(CCOc2ccc(CC3SC(=O)NC3=O)cc2)nc1 (stereo not drawn)
Result: no

Request: Recorded test outcome, item `NC[C@H](O)c1ccc(O)c(O)c1`
Result: no

Request: Recorded test outcome, item `NC(=O)c1cnccn1`
Result: no

Request: Recorded test outcome, item `Nc1nc2c(ncn2COCCO)c(=O)[nH]1`
Result: no

Request: Recorded test outcome, item `NC(N)=NC(=O)c1nc(Cl)c(N)nc1N`
Result: no

Request: Recorded test outcome, item Oc1ccc(C2CNCCc3c2cc(O)c(O)c3Cl)cc1 (stereo not drawn)
Result: no

Request: Recorded test outcome, item `Cc1ccc(N(CC2=NCCN2)c2cccc(O)c2)cc1`
Result: no

Request: Recorded test outcome, item `O=c1n(CCCN2CCN(c3cccc(Cl)c3)CC2)nc2ccccn12`
Result: no

Request: Recorded test outcome, item NCCCC(N)(C(=O)O)C(F)F (stereo not drawn)
Result: no

Request: Recorded test outcome, item O=C1CCC(N2C(=O)c3ccccc3C2=O)C(=O)N1 (stereo not drawn)
Result: no

Request: Recorded test outcome, item COc1ccc2nc(S(=O)Cc3ncc(C)c(OC)c3C)[nH]c2c1 (stereo not drawn)
Result: no

Request: Recorded test outcome, item `CC(=O)Oc1ccccc1C(=O)O`
Result: no

Request: Recorded test outcome, item `Clc1ccc(Nc2nnc(Cc3ccncc3)c3ccccc23)cc1`
Result: no

Request: Recorded test outcome, item `Cc1[nH]c(=O)c(C#N)cc1-c1ccc2nccn2c1`
Result: no

Request: Recorded test outcome, item `N[C@@H]1CONC1=O`
Result: no

Request: Recorded test outcome, item `Nc1ccc(S(=O)(=O)Nc2ccnn2-c2ccccc2)cc1`
Result: no

Request: Recorded test outcome, item `CCCc1nn(C)c2c(=O)[nH]c(-c3cc(S(=O)(=O)N4CCN(C)CC4)ccc3OCC)nc12`
Result: no

Request: Recorded test outcome, item `NNCCc1ccccc1`
Result: no

Request: Recorded test outcome, item CC(C[N+](C)(C)C)OC(N)=O (stereo not drawn)
Result: no

Request: Recorded test outcome, item `Cc1[nH]c(=O)c(C#N)cc1-c1ccncc1`
Result: no

Request: Recorded test outcome, item `CC(C)C[C@H](NC(=O)[C@@H](O)[C@H](N)Cc1ccccc1)C(=O)O`
Result: yes

Request: Recorded test outcome, item `O=C1CCc2cc(OCCCCc3nnnn3C3CCCCC3)ccc2N1`
Result: no

Request: Recorded test outcome, item `Nc1nc2ccc(OC(F)(F)F)cc2s1`
Result: no

Provenance of the data: PubChem BioAssay (NCATS)
